B1: tRNA (parent)
chain: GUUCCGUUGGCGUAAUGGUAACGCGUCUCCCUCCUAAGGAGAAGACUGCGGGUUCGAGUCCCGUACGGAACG

Variants of: B1
Assay: yeast fitness relative to wild type (ratio to wild type); higher = fitter; tRNA-Arg(CCU), competitive growth, 37 C, YPD
Variants at the floor of the assay were thinned out.
Entry flag: class 1 if yeast fitness reaches 0.8; class 0 if it does not.

As a guide, the following entries are already answered.
- changes: "C4A C5G U53A"
  group: "class 0"
- changes: "C11A A42C"
  group: "class 0"
- changes: "A21C G41A G48C G51C G52C"
  group: "class 0"
- changes: "G56A A57G"
  group: "class 1"
- changes: "A43U U54C"
  group: "class 1"

Problem: # check: yeast fitness of C5G C27U G41C C61U C66G is greater than or equal to 0.8
Solution: class 0

Problem: # check: yeast fitness of U2G G10C A45U C46U U47C U64C is greater than or equal to 0.8
Solution: class 0

Reference source: the RNAGym collection of RNA variant scans (doi:10.1126/science.aae0568)
